# MEASURED_ON: T1, hFcRn on hFcRn-expressing HEK293 cells (human, UniProt P55899 24-365; P61769 21-119)
# T1 construct: whole, on cells; also called hFcRn HEK293
# PROTOCOL_SUMMARY: FACS on hFcRn HEK293 cells, 10 nM antibody, pH 7.4
QUANTITY_KIND: MFI

### Prompt Identify measured MFI associated with HL161AN variant No. 10 (LC:N25S, HC:C32Y Q82T) (antibody, human IgG1, V domains shown, Variable domains only) VL: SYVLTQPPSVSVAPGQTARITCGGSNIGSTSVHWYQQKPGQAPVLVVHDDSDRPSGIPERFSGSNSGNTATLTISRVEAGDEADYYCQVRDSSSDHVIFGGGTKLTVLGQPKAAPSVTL VH: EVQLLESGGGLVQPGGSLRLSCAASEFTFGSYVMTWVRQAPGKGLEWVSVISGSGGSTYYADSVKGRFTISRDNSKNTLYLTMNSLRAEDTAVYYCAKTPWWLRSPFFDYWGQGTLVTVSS
### Response 6660 MFI
